tested on: VEEV; test: microbe, parasite or virus in culture; type: cell-based; settings: Venezuelan equine encephalitis virus, HeLa, read-out: Viral Inh. 10 uM
# maps each entry to its inhibition at 10 µM
measurement name: inhibition at 10 µM (%)

1) CCCCCCCOC(=O)ONc1ccn([C@@H]2O[C@H](CO)C(O)C2O)c(=O)n1 (some centres unmarked) [drawing 79] = 100
2) O=c1nc(NO)ccn1[C@@H]1O[C@H](CO)C(O)C1O (some centres unmarked) [drawing 78] = 100
3) CCCCCCCNC(=O)ONc1ccn([C@@H]2O[C@H](CO)C(O)C2O)c(=O)n1 (some centres unmarked) [drawing 82] = 93
4) CC(C)OC(=O)[C@H](C)NP(=O)(OC[C@H]1O[C@@H](n2ccc(NO)nc2=O)C(O)C1O)Oc1ccccc1 (some centres unmarked) [drawing 80] = 73
5) O=c1nc(NO)c(F)cn1[C@@H]1O[C@H](CO)C(O)C1O (some centres unmarked) [drawing 81] = 61

These measurements were taken from patent US11628181B2.
